# Tested on: Enterococcus fecalis Strain SF 24397 NR31970
# method.description: MIC, broth microdilution in TSB
# Format: cell-based
# measurement.conditions: Enterococcus; TSB; Table 1; read-out: MIC
metric: MIC (µg/mL)
Give bare numbers, in µg/mL.

Known results for compounds:
[[record]]
compound = "NS(=O)(=O)c1nnc(NC(=O)c2ccccc2)s1 [CAI0012]"
measured_on = "Enterococcus fecalis Strain SF 24397 NR31970"
metric = "MIC"
unit_descriptor = "µg/mL"
numeric_value = 4

[[record]]
compound = "CC(=O)Nc1nnc(S(N)(=O)=O)s1 [Acetazolamide, reference compound]"
measured_on = "Enterococcus fecalis Strain SF 24397 NR31970"
metric = "MIC"
unit_descriptor = "µg/mL"
numeric_value = 2

[[record]]
compound = "CCC(=O)Nc1nnc(S(N)(=O)=O)s1 [CAI0009]"
measured_on = "Enterococcus fecalis Strain SF 24397 NR31970"
metric = "MIC"
unit_descriptor = "µg/mL"
numeric_value = 4

[[record]]
compound = "CC(=O)NC[C@H]1CN(c2ccc(N3CCOCC3)c(F)c2)C(=O)O1 [Linezolid, reference compound]"
measured_on = "Enterococcus fecalis Strain SF 24397 NR31970"
metric = "MIC"
unit_descriptor = "µg/mL"
numeric_value = 1

[[record]]
compound = "CC(C)C(=O)Nc1nnc(S(N)(=O)=O)s1 [CAI0011]"
measured_on = "Enterococcus fecalis Strain SF 24397 NR31970"
metric = "MIC"
unit_descriptor = "µg/mL"
numeric_value = 2


Below is a list of compounds. For each, state its recorded MIC.
1. CCc1ccc(C(=O)Nc2nnc(S(N)(=O)=O)s2)cc1 [CAI0017]
2. CC(C)(C)C(=O)Nc1nnc(S(N)(=O)=O)s1 [CAI0010]

A:
1. 1
2. 0.5

====

Could you please report measured MIC for the items listed next?
# Test system: Enterococcus faecium E417-HM-965
# method.description: MIC of CAIs in BHIB and TSB
# Format: cell-based
# measurement.conditions: Enterococcus faecium, E417HM965, TSB; Table 5; read-out: MIC
Numbers only, in µg/mL.

Examples with their reported MIC follow.
[[record]]
molecule = "CCOc1ccc2nc(S(N)(=O)=O)sc2c1 [Ethoxzolamide]"
metric = "MIC"
unit_descriptor = "µg/mL"
numeric_value = 2

[[record]]
molecule = "CC(=O)/N=c1/sc(S(N)(=O)=O)nn1C [Methazolamide]"
metric = "MIC"
unit_descriptor = "µg/mL"
numeric_value = 4

[[record]]
molecule = "CCN[C@H]1C[C@H](C)S(=O)(=O)c2sc(S(N)(=O)=O)cc21 [Dorzolamide]"
metric = "MIC"
unit_descriptor = "µg/mL"
numeric_value = 16

[[record]]
molecule = "CC(=O)Nc1nnc(S(N)(=O)=O)s1 [Acetazolamide, reference compound]"
metric = "MIC"
unit_descriptor = "µg/mL"
numeric_value = 2


Now consider a different molecule.
Q: Please tell me: MIC of CCN[C@H]1CN(CCCOC)S(=O)(=O)c2sc(S(N)(=O)=O)cc21 [Brinzolamide] , system Enterococcus faecium E417-HM-965?
A: 2

====

So I've got a bunch of molecules here, and I need their MIC values.
# Test system: Enterococcus fecalis Strain MMH594-NR31975
# method.description: MIC, broth microdilution in TSB
# Type: cell-based
# measurement.conditions: Enterococcus; TSB; Table 7; read-out: MIC in TSB
One number for each entry, in mg/L.

Below: 4 molecules and their reported MIC.
[[record]]
molecule = "CC(=O)NC[C@H]1CN(c2ccc(N3CCOCC3)c(F)c2)C(=O)O1 [Linezolid, reference compound]"
metric = "MIC"
unit_descriptor = "mg/L"
numeric_value = 1

[[record]]
molecule = "NS(=O)(=O)c1nnc(NC(=O)CC2CCCCC2)s1"
metric = "MIC"
unit_descriptor = "mg/L"
numeric_value = 0.015

[[record]]
molecule = "CC(C)C(=O)Nc1nnc(S(N)(=O)=O)s1"
metric = "MIC"
unit_descriptor = "mg/L"
numeric_value = 2

[[record]]
molecule = "NS(=O)(=O)c1nnc(NC(=O)C2CC2)s1"
metric = "MIC"
unit_descriptor = "mg/L"
numeric_value = 0.007


Give one value of MIC per listed molecule.
1. NS(=O)(=O)c1nnc(NC(=O)CC2CCCC2)s1
2. CC(C)CC(=O)Nc1nnc(S(N)(=O)=O)s1
3. CCc1ccc(C(=O)Nc2nnc(S(N)(=O)=O)s2)cc1
4. NS(=O)(=O)c1nnc(NC(=O)C2CCCCC2)s1

A:
0.03
0.25
1
0.25

====

Assign MIC to each entry below.
# Tested on: Enterococcus faecalis—S613 HM-334
# method.description: MIC, broth microdilution in TSB
# Type: cell-based
# measurement.conditions: Enterococcus; TSB; Table 7; read-out: MIC in TSB
One number for each entry, in µg/mL.

[[record]]
molecule = "NS(=O)(=O)c1nnc(NC(=O)C2CCC2)s1 [CAI0018]"
metric = "MIC"
numeric_value = 1


For each of the items listed, what is its MIC?
1. CC(C)C(=O)Nc1nnc(S(N)(=O)=O)s1 [CAI0011]
2. NS(=O)(=O)c1nnc(NC(=O)C2CCCCC2)s1 [CAI0022]
3. CC(=O)NC[C@H]1CN(c2ccc(N3CCOCC3)c(F)c2)C(=O)O1 [Linezolid, reference compound]
4. NS(=O)(=O)c1nnc(NC(=O)C2CCCC2)s1 [CAI0023]
5. NS(=O)(=O)c1nnc(NC(=O)CC2CCCC2)s1 [CAI0021]
6. CC(=O)Nc1nnc(S(N)(=O)=O)s1 [Acetazolamide, reference compound]

A:
[2, 0.25, 1, 0.5, 0.03, 2]

====

# Test system: Mutant-11 of Enterococcus fecalis NR 31975
# method.description: microbe, parasite or virus in culture
# Format: cell-based
# measurement.conditions: Enterococcus
Give measured MIC for each item. Keep answers brief.
Answers are plain numbers, in µg/mL.

As a guide, the following entries are already answered.
[[record]]
molecule = "CC(=O)NC[C@H]1CN(c2ccc(N3CCOCC3)c(F)c2)C(=O)O1 [Linezolid, reference compound]"
unit_descriptor = "µg/mL"
numeric_value = 4

[[record]]
molecule = "CCCC(=O)Nc1nnc(S(N)(=O)=O)s1"
unit_descriptor = "µg/mL"
numeric_value = 8

[[record]]
molecule = "CC(=O)Nc1nnc(S(N)(=O)=O)s1 [Acetazolamide, reference compound]"
unit_descriptor = "µg/mL"
numeric_value = 16

[[record]]
molecule = "CC(C)(C)C(=O)Nc1nnc(S(N)(=O)=O)s1"
unit_descriptor = "µg/mL"
numeric_value = 4


Q: Returns the measured MIC for the input molecule. Input: CCc1ccc(C(=O)Nc2nnc(S(N)(=O)=O)s2)cc1
A: 8

====

Kindly state MIC for each of the entries shown.
# Test system: Enterococcus fecalis Strain SF 24397 NR31970
# method.description: MIC of CAIs in BHIB and TSB
# Assay type: cell-based
# measurement.conditions: Enterococcus, TSB; Table 5; read-out: MIC
Answers are plain numbers, in µg/mL.

[[record]]
compound = "CCN[C@H]1C[C@H](C)S(=O)(=O)c2sc(S(N)(=O)=O)cc21 [Dorzolamide]"
measured_on = "Enterococcus fecalis Strain SF 24397 NR31970"
numeric_value = 8

[[record]]
compound = "CC(=O)NC[C@H]1CN(c2ccc(N3CCOCC3)c(F)c2)C(=O)O1 [Linezolid, reference compound]"
measured_on = "Enterococcus fecalis Strain SF 24397 NR31970"
numeric_value = 1

[[record]]
compound = "CC(=O)Nc1nnc(S(N)(=O)=O)s1 [Acetazolamide, reference compound]"
measured_on = "Enterococcus fecalis Strain SF 24397 NR31970"
numeric_value = 2

[[record]]
compound = "CC(=O)/N=c1/sc(S(N)(=O)=O)nn1C [Methazolamide]"
measured_on = "Enterococcus fecalis Strain SF 24397 NR31970"
numeric_value = 2

[[record]]
compound = "CCOc1ccc2nc(S(N)(=O)=O)sc2c1 [Ethoxzolamide]"
measured_on = "Enterococcus fecalis Strain SF 24397 NR31970"
numeric_value = 2


From here, focus on the item given below.
Q: Would you kindly share the measured MIC for CCN[C@H]1CN(CCCOC)S(=O)(=O)c2sc(S(N)(=O)=O)cc21 [Brinzolamide] ?
A: 2

====

# Tested on: Enterococcus fecalis Strain MMH594-NR31975
# method.description: MIC, broth microdilution in TSB
# Format: cell-based
# measurement.conditions: Enterococcus; TSB; Table 7; read-out: MIC in TSB
# Protocol: The minimum inhibitory concentrations (MICs) of the compounds and control drugs were determined using the broth microdilution method, according to guidelines outlined by the Clinical and Laboratory Standards Institute (CLSI). […]
Hi there, I'd appreciate the recorded MIC for every entry that follows.
Give bare numbers, in mg/L.

Solved entries:
[[record]]
compound = "CC(=O)Nc1nnc(S(N)(=O)=O)s1 [Acetazolamide, reference compound]"
measured_on = "Enterococcus fecalis Strain MMH594-NR31975"
numeric_value = 4

[[record]]
compound = "CC(C)(C)C(=O)Nc1nnc(S(N)(=O)=O)s1"
measured_on = "Enterococcus fecalis Strain MMH594-NR31975"
numeric_value = 0.25

[[record]]
compound = "NS(=O)(=O)c1nnc(NC(=O)c2ccccc2)s1"
measured_on = "Enterococcus fecalis Strain MMH594-NR31975"
numeric_value = 4


Lab note: each compound below needs its MIC filled in.
1. CCCCCCC(=O)Nc1nnc(S(N)(=O)=O)s1
2. NS(=O)(=O)c1nnc(NC(=O)C2CCC2)s1

A:
1: 0.015; 2: 0.5
